The reported measurements were obtained from paper PMC8769072.

# TARGET_DESC: USP7 53-206, Q93009
# Sequence (Q93009 53-206): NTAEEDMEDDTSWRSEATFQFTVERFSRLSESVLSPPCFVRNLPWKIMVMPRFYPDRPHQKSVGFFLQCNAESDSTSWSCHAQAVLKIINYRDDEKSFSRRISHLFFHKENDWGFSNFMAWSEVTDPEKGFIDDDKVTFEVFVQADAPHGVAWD

>  <BINDER>
TDSIHSAHSSHSLSRD [UNC13B, O14795]

>  <selected by phage display>
confidence 2 (active)

$$$$
>  <BINDER>
LSNSESKATSSLMMLD [SIX4, Q9UIU6]

>  <selected by phage display>
confidence 2 (active)

$$$$
>  <BINDER>
SLQNQQNAHTSRMLQV [GPR179, Q6PRD1]

>  <selected by phage display>
confidence 2 (active)

$$$$
